Hello, the source for this data is the supplement of paper PMC7125110, in case you need it.

# self-cleavage kobs at 640 uM GlcN6P values compiled below
B1: glmS ribozyme (parent)
chain: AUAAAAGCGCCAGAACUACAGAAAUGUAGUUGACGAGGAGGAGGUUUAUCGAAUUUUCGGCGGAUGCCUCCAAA

# Variants of: B1
# assayNotes: self-cleavage kobs at 640 uM GlcN6P; higher = faster cleavage; RNA array
# conditionSet: with glucosamine-6-phosphate
Variants at the floor of the assay were thinned out.

{"mutantName": "G13U G60U C68A C71A", "self-cleavage kobs at 640 uM GlcN6P": "< 1e-05 s⁻¹"}
{"mutantName": "A12U U30G G51C", "self-cleavage kobs at 640 uM GlcN6P": "< 1e-05 s⁻¹"}
{"mutantName": "A33C A42C", "self-cleavage kobs at 640 uM GlcN6P": "< 1e-05 s⁻¹"}
{"mutantName": "G35C A64G", "self-cleavage kobs at 640 uM GlcN6P": "< 1e-05 s⁻¹"}
{"mutantName": "C16U A33G C34A A39G", "self-cleavage kobs at 640 uM GlcN6P": "< 1e-05 s⁻¹"}
{"mutantName": "C11A A42C U46C C71U", "self-cleavage kobs at 640 uM GlcN6P": "< 1e-05 s⁻¹"}
{"mutantName": "G32C U45G G60A C68G", "self-cleavage kobs at 640 uM GlcN6P": "< 1e-05 s⁻¹"}
{"mutantName": "U30C C34A", "self-cleavage kobs at 640 uM GlcN6P": "< 1e-05 s⁻¹"}
{"mutantName": "A28C A33U G59U C61U", "self-cleavage kobs at 640 uM GlcN6P": "< 1e-05 s⁻¹"}
{"mutantName": "A6U C16U G38A", "self-cleavage kobs at 640 uM GlcN6P": "< 1e-05 s⁻¹"}
{"mutantName": "G44U A48U", "self-cleavage kobs at 640 uM GlcN6P": "< 1e-05 s⁻¹"}
{"mutantName": "G35U A42G U55A", "self-cleavage kobs at 640 uM GlcN6P": "< 1e-05 s⁻¹"}
{"mutantName": "A6C A53G", "self-cleavage kobs at 640 uM GlcN6P": "3.04e-05 s⁻¹"}
{"mutantName": "C16A G41A U56G", "self-cleavage kobs at 640 uM GlcN6P": "< 1e-05 s⁻¹"}
{"mutantName": "A39U U57A", "self-cleavage kobs at 640 uM GlcN6P": "2.12e-05 s⁻¹"}
{"mutantName": "U54A U69C", "self-cleavage kobs at 640 uM GlcN6P": "0.000282 s⁻¹"}
